Assay: blood-stage malaria parasite viability loss – strain 3D7, DAPI fluorescence, 100 nL, primary screen (AID 1184);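 note: parasites grown inside human red blood cells in medium with human serum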
Settings: P. falciparum 3D7 growth, 3 d, higher = more signal
endpoint.label: z-score
Lab note: jot the number down without any unit.

Consider the worked cases shown below.
> print(dat)
                                   compound  recorded.measurement
1  Cc1ccc(N2C(=O)c3ccccc3[C@@H](C(=O)NC(C)C)[C@@H]2c2ccc(CO)cc2)nc1                 0.679
2  CCCCCCCCCCC(O)C1C=CC2C(=O)N(c3ccccc3)C(=O)C2N1Nc1ccc([N+](=O)[O-])cc1 (stereo unspecified)                -0.338
3  O=C1OCCC/C=C\[C@H]2OC34C=CCN(CCN5CCOCC5)C(=O)[C@H]3N(CCO)C(=O)[C@@H]4C12 (stereo partly specified)                 -1.22
4  CCCNC(=O)[C@@]1(C)c2ccccc2C(=O)N(Cc2cc(C(F)(F)F)cc(C(F)(F)F)c2)[C@H]1c1ccc(CO)cc1                 -1.63
5               O=c1cccc(-c2cccc3ccccc23)o1                -0.796

Enquiry: // query z-score value for entry CCCCCCC#C[Si](O[C@H](c1ccccc1)c1cn([C@H](C)c2ccccc2)nn1)(C(C)C)C(C)C
Return: 0.308

Enquiry: // query z-score value for entry O=C(NCC(O)CO)[C@]1(CCS(=O)(=O)c2ccccc2)N=C(c2ccc(OCCCO)cc2)O[C@@H]1c1ccccc1 (stereo partly specified)
Return: -0.434

Enquiry: // query z-score value for entry COc1ccc([Si](C)(C)[C@@H]2[C@@H](CCn3cc([C@H](O)c4ccccc4)nn3)O[C@]3(C(=O)N(C)c4ccccc43)[C@H]2C)cc1
Return: -1.13

====

Test: COS7 lysate on small-molecule microarray, probe aHis, 635 nm (AID 1123);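 note: z-score combines 667nm fluorescence intensity with signal-to-noise per printed compound spot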
Settings: COS7 cell lysate, fluorescence, higher = more signal
Known composite z-score of a selection of molecules
Lab note: jot the number down without any unit.

molecule	composite z-score
C=CCNC(=O)[C@H]1[C@@H]2C(=O)O[C@@H](c3ccccc3)[C@@H](c3ccccc3)N2[C@@H](c2ccc(OCCO)cc2)[C@]12C(=O)N(C(=O)OCCOC)c1ccc(C#CC3(O)CCCCCC3)cc12	1.9
COC(=O)[C@@]1(Cc2ccc(OC)cc2)[C@H]2c3cc(C(=O)N(C)C)n(Cc4ccc(OC)c(OC)c4)c3C[C@H]2CN1C(=O)c1ccccc1	3.17
COCCOC(=O)N1C(=O)[C@@]2(c3ccccc31)[C@H](C(=O)N1CCCCCCC1)[C@H]1C(=O)O[C@H](c3ccccc3)[C@H](c3ccccc3)N1[C@@H]2c1ccccc1OCCO	3.32
CCN(CC)c1ccc(N2CC=CC34O[C@@H]5/C=C\CCC(C)OC(=O)C5[C@H]3C(=O)N(CCCCCCO)[C@@H]4C2=O)cc1 (some centres not stated)	-0.039
C=C(C(=O)CC[C@H](OC(=O)c1cccnc1)c1ccccc1OCCO)C(C)C	1.28
O=C1c2ccccc2[C@@]2(Cc3ccccc3N(Cc3ccccc3)C2=O)[C@H](c2ccc(CO)cc2)N1Cc1ccccc1C(F)(F)F	1.04

Now take the following molecule into account.
Enquiry: // query composite z-score value for entry O=C(NCC(O)CO)[C@@]1(Cc2ccccc2)COC(c2ccc(OCCCO)cc2)=N1 (some centres not stated)
Return: 0.737
